- TARGET: T1, B3GNT2 (Homo sapiens, UniProt Q9NY97)
- T1 construct: The respective ORFs of candidate genes [CD274 (NM_014143), MCL1 (NM_021960), JUNB (NM_002229), and B3GNT2 (NM_006577)] were synthesized; expressed in transfected cells; host or cells: A375 melanoma cells (lentiviral ORF overexpression)
- T1 sequence (Q9NY97 1-397): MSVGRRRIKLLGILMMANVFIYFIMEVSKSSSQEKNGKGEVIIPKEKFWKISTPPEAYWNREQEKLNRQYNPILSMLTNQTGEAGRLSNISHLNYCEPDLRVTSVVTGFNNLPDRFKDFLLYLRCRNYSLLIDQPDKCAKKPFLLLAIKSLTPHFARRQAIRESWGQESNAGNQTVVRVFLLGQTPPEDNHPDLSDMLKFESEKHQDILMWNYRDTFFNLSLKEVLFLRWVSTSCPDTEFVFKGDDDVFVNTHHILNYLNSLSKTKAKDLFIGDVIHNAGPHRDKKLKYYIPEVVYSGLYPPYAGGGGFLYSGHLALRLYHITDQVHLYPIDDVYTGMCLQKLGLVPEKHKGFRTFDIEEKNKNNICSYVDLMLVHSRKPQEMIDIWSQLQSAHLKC
- ASSAY_NAME: Co-IP of FLAG-tagged B3GNT2 followed by mass spectrometry
- Type: cell-based
- STUDY_CONDITIONS: Co-IP followed by mass spectrometry of B3GNT2; N-term tag, FLAG pull-down
// values below are reported N-term FLAG
# respond with the number and nothing more

Field: example entries. Status: answers known.
{"MOLECULE": "CHCHD3 (protein) GGTTSTRRVTFEADENENITVVKGIRLSENVIDRMKESSPSGSKSQRYSGAYGASVSDEELKRRVAEELALEQAKKESEDQKRLKQAKELDRERAAANEQLTRAILRERICSEEERAKAKHLARQLEEKDRVLKKQDAFYKEQLARLEERSSEFYRVTTEQYQKAAEEVEAKFKRYESHPVCADLQAKILQCYRENTHQTLKCSALATQYMHCVNHAKQSMLEKGG", "N-term FLAG": 16}
{"MOLECULE": "CALML5 (protein) AGELTPEEEAQYKKAFSAVDTDGNGTINAQELGAALKATGKNLSEAQLRKLISEVDSDGDGEISFQEFLTAAKKARAGLEDLQVAFRAFDQDGDGHITVDELRRAMAGLGQPLPQEELDAMIREADVDQDGRVNYEEFARMLAQE", "N-term FLAG": 0}
{"MOLECULE": "GGCT (protein) MANSGCKDVTGPDEESFLYFAYGSNLLTERIHLRNPSAAFFCVARLQDFKLDFGNSQGKTSQTWHGGIATIFQSPGDEVWGVVWKMNKSNLNSLDEQEGVKSGMYVVIEVKVATQEGKEITCRSYLMTNYESAPPSPQYKKIICMGAKENGLPLEYQEKLKAIEPNDYTGKVSEEIEDIIKKGETQTL", "N-term FLAG": 3}

# N-term FLAG lookup, item TMEM59 (protein) EAFDSVLGDTASCHRACQLTYPLHTYPKEEELYACQRGCRLFSICQFVDDGIDLNRTKLECESACTEAYSQSDEQYACHLGCQNQLPFAELRQEQLMSLMPKMHLLFPLTLVRSFWSDMMDSAQSFITSSWTFYLQADDGKIVIFQSKPEIQYAPHLEQEPTNLRESSLSKMSYLQMRNSQAHRNFLEDGESDGFLRCLSLNSGWILTTTLVLSVMVLLWICCATVATAVEQYVPSEKLSIYGDLEFMNEQKLNRYPASSLVVVRSKTEDHEEAGPLPTKVNLAHSEI
6

# N-term FLAG lookup, item KCTD5 (protein) AENHCELLSPARGGIGAGLGGGLCRRCSAGLGALAQRPGSVSKWVRLNVGGTYFLTTRQTLCRDPKSFLYRLCQADPDLDSDKDETGAYLIDRDPTYFGPVLNYLRHGKLVINKDLAEEGVLEEAEFYNITSLIKLVKDKIRERDSKTSQVPVKHVYRVLQCQEEELTQMVSTMSDGWKFEQLVSIGSSYNYGNEDQAEFLCVVSKELHNTPYGTASEPSEKAKILQERGSRM
2
